# System Name: T1, human CD24 on cells (human, UniProt P25063 27-59)
# T1 chain (looked up): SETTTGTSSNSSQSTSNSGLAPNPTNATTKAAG
# Test Details: cell-based or functional assay
Measured Quantity: EC50 of Phagocytosis assay, IgG1, Kappa; NALM6 (µg/mL)
API: value field is a number in µg/mL; no unit string.

INSERT INTO assay_data (binder, endpoint_value) VALUES
  ('80-F10A6, IgG1, Kappa (antibody, V domains shown) VH: EVQLQQSGPVLVNPGASVKISCKASGYSFTGYYMNWVKQSPEKSLEWIGEVNPITGDTTYSQNFKAKTTLTVDRSSSTAYMQLKSLTSEDSAVYYCTRRDYGTSLDYWGQGTTLTVSS VL: DVQITQSPSYLAASPGETITIHCRASKSISRYLAWYQEKPGKINTLLIYAGSTLHLGIPSRFSGSGSGTDFTLTISSLELEDFAMYYCQQHNEYPITFGAGTKLELK', 0.46);

Kindly consider the entry below.
Quick one: EC50 of Phagocytosis assay, IgG1, Kappa; NALM6 of 79-E3H3, IgG1, Kappa (antibody, V domains shown) VH: EVQLQQSGPELVKPGASVKISCKASGYEFTGYHMNWVKQSPEKSLEWIGEINPITSDKTFNQKFKAKATLTVDRSSSTAYMHLKSLTSEDSAVYYCARRDYDTSLDYWGQGTTLTVSS VL: DVQITQSPSYLAASPGETITIYCRASKSISKYLAWYQEKPEKTNRLLIYAGSTLQSGIPSRFRGSGSGKDFTLTVSGLEPEDFAMYYCQQHNEYPLTFGAGTKLELK ?
0.49
